- Tested on: Rattus norvegicus
- ASSAY OVERVIEW: Ulcerogenic effect in albino rat stomach assessed as ulcer index at 0.32 mmol/kg, po administered for 3 days measured 2 hrs post last dose
- Format: toxicity, organism-based
- EXPERIMENTAL SETUP: in vivo
TEST READOUT: UI

Worked examples, 5 compounds total:
>>> df
                                        smi  result
0  COc1ccc(-c2nn(-c3ccc(Cl)cc3)cc2-c2cc(-c3ccc(Cl)cc3)[nH]c2-c2ccc(F)cc2)cc1      12
1  Cc1ccc(-c2nn(-c3ccc(S(N)(=O)=O)cc3)cc2-c2cc(-c3ccc(Cl)cc3)[nH]c2-c2ccc(F)cc2)cc1      15
2  Cc1ccc(-c2nn(-c3ccc(S(N)(=O)=O)cc3)cc2C=O)cc1     9.6
3  Cc1ccc(-c2nn(-c3ccc(Cl)cc3)cc2-c2cc(-c3ccc(Cl)cc3)[nH]c2-c2ccc(F)cc2)cc1      13
4  COc1ccc(-c2nn(-c3ccc(S(N)(=O)=O)cc3)cc2C=O)cc1    11.2

Provide the reported UI of each entry below, same order.
1. COc1ccc(/N=C\c2cn(-c3ccc(S(N)(=O)=O)cc3)nc2-c2ccc(OC)cc2)cc1
2. COc1ccc(/N=C\c2cn(-c3ccc(Cl)cc3)nc2-c2ccc(OC)cc2)cc1
3. CCCCC1C(=O)N(c2ccccc2)N(c2ccccc2)C1=O
4. Cc1ccc(-c2nn(-c3ccc(S(N)(=O)=O)cc3)cc2/C=N\c2ccc(Cl)cc2)cc1
5. COc1ccc(-c2nn(-c3ccc(Cl)cc3)cc2/C=N\c2ccc(Cl)cc2)cc1

1: 16.4; 2: 14.32; 3: 30.2; 4: 5.8; 5: 5.4

* * *

For each entry below, report its inhibition in vivo at 320 µmol/kg value.
- Test system: Rattus norvegicus
- ASSAY OVERVIEW: Antiinflammatory activity in Wistar albino rat assessed as inhibition of carrageenan-induced paw edema at 0.32 mmol/kg, ip administered 1 hr prior to carrageenan challenge measured at 2 hrs by plethysmometric analysis relative to control
- Format: functional
Give bare numbers, in %.

Worked examples, 5 compounds total:
>>> df
                                   compound  quantitative_result
0  Cc1ccc(-c2nn(-c3ccc(S(N)(=O)=O)cc3)cc2/C=N\c2ccccc2)cc1                 58.1
1  COc1ccc(/N=C\c2cn(-c3ccc(S(N)(=O)=O)cc3)nc2-c2ccc(OC)cc2)cc1                 65.8
2     CCCCC1C(=O)N(c2ccccc2)N(c2ccccc2)C1=O                 57.3
3  COc1ccc(-c2nn(-c3ccc(Cl)cc3)cc2C(CC(=O)c2ccc(Cl)cc2)C(=O)c2ccc(F)cc2)cc1 (configuration not stated)                 19.8
4  COc1ccc(-c2nn(-c3ccc(S(N)(=O)=O)cc3)cc2/C=C\C(=O)c2ccc(Cl)cc2)cc1                 55.6

Provide the reported inhibition in vivo at 320 µmol/kg of each entry below, same order.
1. COc1ccc(-c2nn(-c3ccc(Cl)cc3)cc2/C=N\c2ccccc2)cc1
2. Cc1ccc(-c2nn(-c3ccc(S(N)(=O)=O)cc3)cc2C(CC(=O)c2ccc(Cl)cc2)C(=O)c2ccc(F)cc2)cc1 (configuration not stated)

1: 57.2; 2: 53.5

Provide the reported inhibition in vivo at 320 µmol/kg of each entry below, same order.
1. COc1ccc(-c2nn(-c3ccc(Cl)cc3)cc2/C=N\c2ccc(Cl)cc2)cc1
2. Cc1ccc(-c2nn(-c3ccc(Cl)cc3)cc2/C=N\c2ccccc2)cc1

69.6
40.1

Provide the reported inhibition in vivo at 320 µmol/kg of each entry below, same order.
1. COc1ccc(-c2nn(-c3ccc(Cl)cc3)cc2-c2cc(-c3ccc(Cl)cc3)[nH]c2-c2ccc(OC)cc2)cc1
2. COc1ccc(-c2nn(-c3ccc(Cl)cc3)cc2-c2cc(-c3ccc(Cl)cc3)[nH]c2-c2ccc(F)cc2)cc1
3. COc1ccc(C(=O)C(CC(=O)c2ccc(Cl)cc2)c2cn(-c3ccc(Cl)cc3)nc2-c2ccc(OC)cc2)cc1 (configuration not stated)

[10.5, 53.7, 0]
